These entries and their values trace back to ChEMBL document CHEMBL1154864.

# Test system: NCI-H187
# assay protocol: Cytotoxicity against human NCI-H187 cells by SRB assay
# Type: functional, cell-based
Let's look at some molecules and their measured IC50.

- molecule: "Cc1ccc(O)c2c1C[C@@H](C)OC2=O"
  IC50: "> 104 µM"
- molecule: "CC(=O)[C@@]1(OCCc2ccccc2)OC[C@H]2C=C[C@H]3C[C@@H](C)CC[C@@H]3[C@]21C [OBLONGOLIDE Z]"
  IC50: "32 µM"
- molecule: "C[C@H]1CC[C@H]2[C@@H](C=C[C@]3(O)COC(=O)[C@]23C)C1 [OBLONGOLIDE C]"
  IC50: "> 85 µM"
- molecule: "C[C@H]1CC[C@H]2[C@@H](C=C[C@@H]3[C@@H](O)O[C@@H](CO)C(=O)[C@@]32C)C1"
  IC50: "> 71 µM"
- molecule: "C[C@H]1CC[C@H]2[C@@H](C=C[C@@H]3CO[C@@](O)(CO)C(=O)[C@@]32C)C1 [OBLONGOLIDE X]"
  IC50: "> 71 µM"
- molecule: "C[C@H]1CC[C@H]2[C@@H](C=C[C@@H]3COC(=O)[C@](O)(CO)[C@@]32C)C1 [OBLONGOLIDE W2]"
  IC50: "> 71 µM"

stdin: Requested read-out: IC50. Entry: CO[C@]1(C(C)=O)OC[C@H]2C=C[C@H]3C[C@@H](C)CC[C@@H]3[C@]21C [OBLONGOLIDE Y]
stdout: > 72 µM

stdin: // lookup IC50 for C[C@H]1CC[C@H]2[C@H](C1)[C@@H]1O[C@@H]1[C@@H]1COC(=O)[C@]21C [OBLONGOLIDE Q]
stdout: > 85 µM

stdin: Return reported IC50; argument: COc1cccc2c1C(=O)c1c(O)c3c(c(O)c1C2=O)C[C@@](O)(C(=O)CO)C[C@@H]3O[C@H]1C[C@H](N)[C@H](O)[C@H](C)O1
stdout: 0.08 µM

stdin: Using the record for C[C@H]1CC[C@H]2[C@@H](C=C[C@@H]3CO[C@](C)(O)C(=O)[C@@]32C)C1 [OBLONGOLIDE T] , report its IC50.
stdout: > 76 µM

stdin: Which IC50 value belongs to C[C@H]1CC[C@H]2[C@@H](C=C[C@@H]3COC(=O)[C@@]32C)C1 [OBLONGOLIDE] ?
stdout: > 91 µM

stdin: Any idea what its IC50 is? The molecule is C[C@H]1CC[C@H]2[C@@H](C=C[C@@H]3COC(=O)[C@@](O)(CO)[C@@]32C)C1 [OBLONGOLIDE W1]
stdout: > 71 µM
